// kon lookup, one value per entry
Target: T1, human CD123 Strep-II tagged Fc-fusion protein (human)
T1 construct: also called human CD123-Fc; recombinant CD123
T1 sequence (chain, as listed by the source limits assumed): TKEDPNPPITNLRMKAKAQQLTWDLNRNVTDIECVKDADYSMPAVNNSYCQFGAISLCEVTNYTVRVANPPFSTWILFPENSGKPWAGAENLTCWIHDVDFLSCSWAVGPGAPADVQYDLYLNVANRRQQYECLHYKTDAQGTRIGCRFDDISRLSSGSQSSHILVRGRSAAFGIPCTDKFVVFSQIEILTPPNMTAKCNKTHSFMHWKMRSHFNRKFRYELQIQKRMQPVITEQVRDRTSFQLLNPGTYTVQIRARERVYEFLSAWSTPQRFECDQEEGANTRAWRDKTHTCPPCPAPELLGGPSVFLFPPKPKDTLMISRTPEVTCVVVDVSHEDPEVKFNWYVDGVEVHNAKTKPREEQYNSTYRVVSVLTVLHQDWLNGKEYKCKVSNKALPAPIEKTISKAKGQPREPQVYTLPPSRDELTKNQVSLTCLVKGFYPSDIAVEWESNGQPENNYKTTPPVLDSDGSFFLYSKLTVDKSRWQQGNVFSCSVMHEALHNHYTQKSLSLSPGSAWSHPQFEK
Assay: SPR Proteon XPR36, rat IgG captured, CD123-Fc analyte
# value in M⁻¹ s⁻¹; strip the unit string

## Task Fill in kon for record 6C10-C4 anti-CD123 rat IgG (hybridoma supernatant) (antibody, V domains shown, rat IgG; also called BFX - 6C10) VH: EVKLQESGPSLVQPSETLSLTCTVSGFSLTSYSVHWVRQHSGKSLEWMGRMWNDGDTSYNSAFTSRLSISRDTSKGQVFLKMNSLQTEDTGTYYCARGHRTPFDYWGQGVMVTVSS VL: DIVMTQSPSSLAVSAGETVTINCKSSQSFLSSGDERNYVAWYQHKPGQSPKLLIYWASTRHSGVPDRFIGSGSGTDFTLTISSVQAEDLAIYYCQQYYDTPLTFGSGTKLEIK
## Result 180000

## Task Fill in kon for record 8B11-B7 anti-CD123 rat IgG (hybridoma supernatant) (antibody, V domains shown, rat IgG; also called BFX - 8B11) VH: QVQLQESGPTLVNPGDSVKMSCKASGYTFTDHIIHWVKQSHGKSLEWIGYINPYSGGANYNGKFKSKATLTIDKSSSTAYMEFSRLTSGDSAIYYCALNYGSYYAMDAWGQGTSVTVSS VL: DIQMTQSPASLSASLGETVTIECRTSKDIYSNLAWFQQEPGNSPQLLIYDASNLADGVPSRFSGSGSGTQYSLQINNLQSEDVASYFCHQYNNYPYTFGTGTKLELK
## Result 470000

## Task Fill in kon for record 2B8-F3 anti-CD123 rat IgG (hybridoma supernatant) (antibody, V domains shown, rat IgG; also called BFX - 2B8) VH: EVQLVESGGGLVQPGRSLKLSCAASGFTFSDYNMAWVRQAPKKGLEWVATILYDGGRTYYRGSVKGRFTISRDNAKSTLYLRMDSLRSEDTATYYCATHSRGTDYFDYWGQGVMVTVSS VL: EIVLTQSPTSMTASPGEQVTITCRASSSINYMHWYQQKPGASPRPWIYETSKLASGVPDRFSGSASGTSYSLTINNMEAEDAATYYCQQWNYPSWTFGGGTKLELK
## Result 660000

Reference source for all entries: patent US20210292423A1
